- experiment summary: Metabolic stability in rat liver microsomes
- Assay type: in vitro ADME, SD rat
- reported conditions: Sprague-Dawley, pH 7.4, 1 μM compound, 0.5 mg/mL protein
attribute measured: half-life at 1 μM (min)
Use min as the unit, but write only the number.

// worked examples, half-life at 1 μM included
1. C=CC(=O)N1CCC[C@H](c2cn(-c3ccc(Oc4ccccc4)cc3)c3c(N)ncnc23)C1 [Example 4]
2.9
2. C=CC(=O)N1CCC[C@H](c2nn(-c3ccc(Oc4ccccc4)cc3)c3c(N)ncnc23)C1 [Example 6]
4.1

# ---- query compound ----
Consider the compound C=CC(=O)N1CCC[C@@H](c2nc(-c3ccc(Oc4ccccc4)cc3)c3c(N)nccn23)C1 [Example 7] and give its measured half-life at 1 μM. 2.4

====

- experiment summary: Pharmacokinetic experiments in rats
- reported conditions: male, Sprague-Dawley, rat, in vivo, po, 10 mg/kg
attribute measured: Tmax (min)
Use min as the unit, but write only the number.

Consider the compound `C=CC(=O)N1CCC[C@@H](n2nc(-c3ccc(Oc4ccccc4)cc3)c3c(N)ncnc32)C1` and give its measured Tmax. 30

====

- experiment summary: Metabolic stability in rat liver microsomes
- Type: in vitro ADME, SD rat
- reported conditions: Sprague-Dawley, pH 7.4, 1 μM compound, 0.5 mg/mL protein
attribute measured: microsomal CLint at 1 μM (µL/min/mg)
Use µL/min/mg as the unit, but write only the number.

// worked examples, microsomal CLint at 1 μM included
1. C=CC(=O)N1CCC[C@@H](c2nc(-c3ccc(Oc4ccccc4)cc3)c3c(N)nccn23)C1
576
2. C=CC(=O)N1CCC[C@H](c2cn(-c3ccc(Oc4ccccc4)cc3)c3c(N)ncnc23)C1
483

Consider the compound `C=CC(=O)N1CCC[C@H](c2nn(-c3ccc(Oc4ccccc4)cc3)c3c(N)ncnc23)C1` and give its measured microsomal CLint at 1 μM. 338

====

- measured target: BTK (Homo sapiens (Human))
- Sequence (Q06187 whole entry): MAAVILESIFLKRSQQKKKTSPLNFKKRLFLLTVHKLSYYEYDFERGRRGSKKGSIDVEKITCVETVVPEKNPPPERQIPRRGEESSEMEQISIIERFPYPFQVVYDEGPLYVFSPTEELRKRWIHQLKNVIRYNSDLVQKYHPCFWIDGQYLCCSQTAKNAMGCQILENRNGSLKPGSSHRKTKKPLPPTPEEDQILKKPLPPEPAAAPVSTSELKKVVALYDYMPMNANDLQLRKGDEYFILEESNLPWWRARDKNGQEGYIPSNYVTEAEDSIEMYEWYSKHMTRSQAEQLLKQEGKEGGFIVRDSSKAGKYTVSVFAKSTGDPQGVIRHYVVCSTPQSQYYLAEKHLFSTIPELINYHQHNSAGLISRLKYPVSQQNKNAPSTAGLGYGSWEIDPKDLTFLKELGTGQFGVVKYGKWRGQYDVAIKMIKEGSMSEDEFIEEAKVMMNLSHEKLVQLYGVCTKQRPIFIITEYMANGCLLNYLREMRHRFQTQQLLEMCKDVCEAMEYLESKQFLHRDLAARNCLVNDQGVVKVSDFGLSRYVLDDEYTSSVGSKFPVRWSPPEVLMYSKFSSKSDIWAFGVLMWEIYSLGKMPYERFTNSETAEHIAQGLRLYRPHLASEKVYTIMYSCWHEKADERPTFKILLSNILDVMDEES
- experiment summary: Kinase inhibition test (HTRF)
- Assay type: biochemical
- reported conditions: 1 nM BTK, 20 μM ATP
attribute measured: IC50

// worked examples, IC50 included
1) C=CC(=O)N1CCC[C@@H](c2nc(-c3ccc(Oc4ccccc4)cc3)c3c(N)nccn23)C1
< 1 nM
2) C=CC(=O)N1CCC[C@H](c2nn(-c3ccc(Oc4ccccc4)cc3)c3c(N)ncnc23)C1
< 1 nM

# ---- query compound ----
Consider the compound `C=CC(=O)N1CCC[C@@H](c2cn(-c3ccc(Oc4ccccc4)cc3)c3c(N)ncnc23)C1` and give its measured IC50. < 1 nM

====

- experiment summary: Metabolic stability in human liver microsomes
- Assay type: in vitro ADME
- reported conditions: pH 7.4, 1 μM compound, 0.5 mg/mL protein
attribute measured: half-life at 1 μM (min)
Use min as the unit, but write only the number.

1. C=CC(=O)N1CCC[C@@H](c2cn(-c3ccc(Oc4ccccc4)cc3)c3c(N)ncnc23)C1 [Example 3]
1.3
2. C=CC(=O)N1CCC[C@H](c2nn(-c3ccc(Oc4ccccc4)cc3)c3c(N)ncnc23)C1 [Example 6]
12.5
3. C=CC(=O)N1CCC[C@H](c2cn(-c3ccc(Oc4ccccc4)cc3)c3c(N)ncnc23)C1 [Example 4]
3.5
4. C=CC(=O)N1CCC[C@@H](c2nn(-c3ccc(Oc4ccccc4)cc3)c3c(N)ncnc23)C1 [Example 5]
1.5

Consider the compound C=CC(=O)N1CCC[C@@H](c2nc(-c3ccc(Oc4ccccc4)cc3)c3c(N)nccn23)C1 [Example 7] and give its measured half-life at 1 μM. 5.7
